Values compiled from ChEMBL document CHEMBL1133449.

# Acetylcholinesterase (Bos taurus, UniProt P23795): pIC50 values follow
# Sequence (P23795 whole entry): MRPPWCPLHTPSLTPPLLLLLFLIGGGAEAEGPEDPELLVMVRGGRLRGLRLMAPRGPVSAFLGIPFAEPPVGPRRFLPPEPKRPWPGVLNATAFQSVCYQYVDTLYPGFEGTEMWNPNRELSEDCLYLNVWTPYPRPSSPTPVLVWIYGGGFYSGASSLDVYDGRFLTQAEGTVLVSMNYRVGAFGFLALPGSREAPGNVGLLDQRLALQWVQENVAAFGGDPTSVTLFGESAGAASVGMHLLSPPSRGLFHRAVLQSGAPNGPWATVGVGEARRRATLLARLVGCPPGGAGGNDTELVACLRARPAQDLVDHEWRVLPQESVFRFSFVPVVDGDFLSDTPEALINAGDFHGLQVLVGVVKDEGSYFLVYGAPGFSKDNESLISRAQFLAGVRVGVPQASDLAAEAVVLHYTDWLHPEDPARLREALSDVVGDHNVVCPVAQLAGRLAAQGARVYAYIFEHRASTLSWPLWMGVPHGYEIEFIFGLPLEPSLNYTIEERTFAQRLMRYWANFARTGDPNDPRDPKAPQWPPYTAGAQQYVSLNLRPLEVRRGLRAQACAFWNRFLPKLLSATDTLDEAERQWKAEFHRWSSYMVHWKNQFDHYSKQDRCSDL
pIC50 (log units): -log10 of the concentration in mol/L.

Ask | Kindly indicate its recorded pIC50. Item: CCC1=CC2Cc3nc4cc(Cl)ccc4c(N)c3[C@@H](C1)C2 (mixture of isomers; (-)) [HUPRINE X]
Reply | 8.89

Ask | Kindly indicate its recorded pIC50. Item: CCC1=CC2Cc3nc4cc(C)cc(C)c4c(N)c3C(C1)C2 (centres undefined)
Reply | 8.44

Ask | Kindly indicate its recorded pIC50. Item: CCC1=CC2Cc3nc4cc(Cl)ccc4c(N)c3[C@@H](C1)C2 (stereo in doubt) [HUPRINE X]
Reply | 8.56

Ask | Kindly indicate its recorded pIC50. Item: CCC1=CC2Cc3nc4cc(Cl)cc(Cl)c4c(N)c3C(C1)C2 (centres undefined)
Reply | 7.40
